Target: A2A receptor (Homo sapiens, UniProt P29274)
Construct: host or cells: HEK-293
Sequence (P29274 whole entry): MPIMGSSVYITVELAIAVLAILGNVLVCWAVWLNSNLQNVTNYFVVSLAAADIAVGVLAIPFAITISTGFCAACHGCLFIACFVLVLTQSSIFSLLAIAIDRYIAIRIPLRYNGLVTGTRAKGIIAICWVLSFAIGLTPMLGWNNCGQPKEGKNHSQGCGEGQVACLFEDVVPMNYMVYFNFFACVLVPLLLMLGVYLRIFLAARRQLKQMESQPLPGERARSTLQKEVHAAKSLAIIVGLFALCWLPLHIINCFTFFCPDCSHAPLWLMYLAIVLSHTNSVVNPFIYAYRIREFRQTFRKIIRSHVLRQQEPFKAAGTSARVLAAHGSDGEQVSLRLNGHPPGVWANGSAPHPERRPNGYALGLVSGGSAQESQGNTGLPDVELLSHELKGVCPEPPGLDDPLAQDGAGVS
Assay: A2aR antagonism IC50, cAMP TR-FRET in HEK-293 cells, high concentration of adenosine (30 μM);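 further: compounds added 10 min before adenosine, then 30 min stimulation at room temperature in buffer with 100 µM rolipram and 30 µM EHNA, signal read 1 h after detection reagents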
Type: cell-based
Details: HEK-293 cells expressing A2A receptor; agonist adenosine 30 μM; 2% HSA; inhibition of cAMP; read-out: A2AR IC50 (nM) (@30 μM Adenosine)
Quantity: IC50 (nM)

As a guide, the following entries are already answered.
- Molecule: "CCc1c(C)nn2c(N)c(C#N)c(NCCc3cccn(CCN)c3=O)nc12"
  Recorded Number: 1890
- Molecule: "Cc1nn2c(N)c(C#N)c(NCCc3cccn(CCO)c3=O)nc2c1Cl"
  Recorded Number: 50
- Molecule: "Cc1nn2c(N)c(C#N)c(NCCc3ccn(C4CCC4CO)n3)nc2c1Cl (centres unmarked)"
  Recorded Number: 50

(A) Cc1nn2c(N)c(C#N)c(NCCc3cccn(CCCN)c3=O)nc2c1Cl
(B) CCCc1c(C)nn2c(N)c(C#N)c(NCCc3cccc(CO)n3)nc12
## Task IC50 comparison. Which is larger, A or B ? Answer by stating the label of the chosen item.
## Result B
(B: 1670 nM, A: 237 nM)
